Recorded values, source PubChem BioAssay (EPA / NIEHS).

biological target: Hepatocyte nuclear factor 6 (Homo sapiens); assay: ATG_HNF6_CIS: Attagene CIS-FACTORIAL HepG2 Assay for human Hepatocyte Nuclear Factor 6 (HNF6) (AID 2282952); conditions: HepG2 Attagene cis-factorial HNF6 reporter transcription; actives raise or lower the signal
The source made the active and inactive calls. Rule for the calls: active = hit-call score of the fitted dose curve at least 0.9, where 1 is the maximum; inactive = score below 0.9.
The reply should be one of these categories: active, inactive

Consider the worked cases shown below.
{"columns": ["compound", "groupLabel"],
 "data": [
  ["CC(=O)C=CC1=C(C)CCCC1(C)C", "inactive"],
  ["OCc1cccnc1", "inactive"],
  ["CCN(CC)c1ccc2c(-c3ccccc3C(=O)O)c3ccc(=[N+](CC)CC)cc-3oc2c1", "inactive"],
  ["NCCCN1CCOCC1", "inactive"]
]}

Q: I would be grateful if you could indicate the recorded call for `C=C(C)[C@@H]1CCC2=CC(=O)C[C@@H](C)[C@]2(C)C1` .
Ans: inactive

Q: I would be grateful if you could indicate the recorded call for `CCCCOCCOCCOCCOCCO` .
Ans: inactive

Q: I would be grateful if you could indicate the recorded call for `CC(C)OP(=O)(CP(=O)(OC(C)C)OC(C)C)OC(C)C` .
Ans: inactive

Q: I would be grateful if you could indicate the recorded call for `O=C(O)c1cccc(C(F)(F)F)c1` .
Ans: inactive

---

Read-out: Interleukin-1 alpha (IL1a), IL1A (gene 3552)
Test: BSK_BE3C_IL1a: BioMAP Diversity Plus: BE3C Assay for Interleukin-1 alpha (IL1a) Biomarker Activity (AID 2283016)
Details: primary human bronchial epithelial cells; actives raise or lower the signal
Procedure: BSK_BE3C is a cell-based, multiplexed-readout assay that uses bronchial epithelial cell, a human lung primary cell, with measurements taken at 24 hours after chemical dosing in a 96-well plate.BSK_BE3C_IL1a is an assay component measured in the BSK_BE3C assay. It measures IL-1a antibody related to regulation of gene expression using ELISA technology.Data from the assay component BSK_BE3C_IL1a was analyzed into 1 assay endpoint. […]
Active and inactive are the calls of the source. The calls were made as follows: active = hit-call score of the fitted dose curve at least 0.9, where 1 is the maximum; inactive = score below 0.9.
The reply should be one of these categories: t for active, f for inactive

Consider the worked cases shown below.
{"columns": ["compound", "groupLabel"],
 "data": [
  ["Cc1ccc2n[nH]nc2c1", "f"],
  ["c1ccc2c(c1)c1cccc3ccc4cccc2c4c31", "f"],
  ["CC1COc2ccccc2N1C(=O)C(Cl)Cl (stereo not drawn)", "t"],
  ["CN(CCOc1ccc(CC2SC(=O)NC2=O)cc1)c1ccccn1 (stereo not drawn)", "t"],
  ["O=P(c1ccccc1)(c1ccccc1)c1ccccc1", "f"],
  ["CCCCCCCCC=O", "f"]
]}

Q: I would be grateful if you could indicate the recorded call for `Nc1cc([N+](=O)[O-])ccc1Cl` .
Ans: f

Q: I would be grateful if you could indicate the recorded call for OC1OC[C@@H](O)[C@H](O)[C@H]1O (stereo partly drawn) .
Ans: f

---

molecular target: X-box-binding protein 1 (Homo sapiens); test: ATG_Xbp1_CIS: Attagene CIS-FACTORIAL HepG2 Assay for human X-box Binding Protein 1 (XBP1) (AID 2282972); details: HepG2 XBP1 cis-element reporter, Attagene multiplex; actives raise or lower the signal
Active and inactive are the calls of the source. How the source made its calls: active means hit-call score of the fitted dose curve at least 0.9, where 1 is the maximum; inactive means score below 0.9.
The reply should be one of these categories: active, inactive

Consider the worked cases shown below.
{"columns": ["molecule", "assayedSystem", "groupLabel"],
 "data": [
  ["CC(C)OP(=O)(CP(=O)(OC(C)C)OC(C)C)OC(C)C", "X-box-binding protein 1 (Homo sapiens)", "inactive"],
  ["CC(=O)OCCOC(C)=O", "X-box-binding protein 1 (Homo sapiens)", "inactive"],
  ["FC1(F)C(F)(F)C(F)(F)C2(F)C(F)(C1(F)F)C(F)(F)C(F)(F)C1(F)C(F)(F)C(F)(F)C(F)(F)C(F)(F)C12F (stereo unspecified)", "X-box-binding protein 1 (Homo sapiens)", "inactive"],
  ["C=CC(=O)OCCOCCOCC", "X-box-binding protein 1 (Homo sapiens)", "active"],
  ["CC(=O)[C@H]1CC[C@H]2[C@@H]3CC=C4C[C@@H](O)CC[C@]4(C)[C@H]3CC[C@]12C", "X-box-binding protein 1 (Homo sapiens)", "inactive"]
]}

Would you kindly look at the next entry?
Q: I would be grateful if you could indicate the recorded call for `O=C(O)CCCCCCCC(=O)O` .
Ans: inactive

---

target: Myc proto-oncogene protein (Homo sapiens); assay: ATG_Myc_CIS: Attagene CIS-FACTORIAL HepG2 Assay for human Myelocytomatosis (Myc) Proto-Oncogene Transcription Factor (AID 2282990); conditions: HepG2, Attagene cis-reporter transcription factor activity; actives raise or lower the signal
Activity calls are given as the source filed them. How the source made its calls: active means hit-call score of the fitted dose curve at least 0.9, where 1 is the maximum; inactive means score below 0.9.
The reply should be one of these categories: active, inactive

Consider the worked cases shown below.
{"columns": ["molecule", "groupLabel"],
 "data": [
  ["O=C1CCc2ccccc2O1", "inactive"],
  ["O=S(=O)(O)c1ccc(O)c2ncccc12", "inactive"],
  ["CC(=O)C(C)=O", "inactive"],
  ["CC(=O)[O][Al][O]C(C)=O", "inactive"],
  ["O=C=NC1CCC(CC2CCC(N=C=O)CC2)CC1 (stereo not drawn)", "active"]
]}

Q: I would be grateful if you could indicate the recorded call for `COc1c(Cl)c(Cl)c(Cl)c(Cl)c1Cl` .
Ans: inactive

Q: I would be grateful if you could indicate the recorded call for `C=CC[N+](C)(C)CC=C` .
Ans: inactive

---

read-out: Monokine induced gamma interferon (MIG), CXCL9 (gene 4283); assay: BSK_SAg_MIG: BioMAP Diversity Plus: SAg Assay for Monokine induced gamma interferon (MIG) Biomarker Activity (AID 2283092); settings: primary human HUVEC with PBMC; actives raise or lower the signal
Active and inactive are the calls of the source. The calls were made as follows: active = hit-call score of the fitted dose curve at least 0.9, where 1 is the maximum; inactive = score below 0.9.
The reply should be one of these categories: t (active), f (inactive)

{"columns": ["compound", "groupLabel"],
 "data": [
  ["CCCCC(CC)COCCC#N (centres undefined)", "f"]
]}

Q: I would be grateful if you could indicate the recorded call for `CNC[C@H](O)c1cccc(O)c1` .
Ans: f

Q: I would be grateful if you could indicate the recorded call for CC1COc2ccccc2N1C(=O)C(Cl)Cl (centres undefined) .
Ans: f

---

biological target: sheep Cyclooxygenase-1 (Cox1), PTGS1 (gene 443551) (UniProt P05979); assay: NVS_ENZ_oCOX1: NovaScreen (NVS) Enzymatic Assay for sheep Cyclooxygenase-1 (Cox1) (AID 2283239);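 note: actives reduce cyclooxygenase activity so potencies are for inhibitors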
Sequence (P05979 whole entry, looked up): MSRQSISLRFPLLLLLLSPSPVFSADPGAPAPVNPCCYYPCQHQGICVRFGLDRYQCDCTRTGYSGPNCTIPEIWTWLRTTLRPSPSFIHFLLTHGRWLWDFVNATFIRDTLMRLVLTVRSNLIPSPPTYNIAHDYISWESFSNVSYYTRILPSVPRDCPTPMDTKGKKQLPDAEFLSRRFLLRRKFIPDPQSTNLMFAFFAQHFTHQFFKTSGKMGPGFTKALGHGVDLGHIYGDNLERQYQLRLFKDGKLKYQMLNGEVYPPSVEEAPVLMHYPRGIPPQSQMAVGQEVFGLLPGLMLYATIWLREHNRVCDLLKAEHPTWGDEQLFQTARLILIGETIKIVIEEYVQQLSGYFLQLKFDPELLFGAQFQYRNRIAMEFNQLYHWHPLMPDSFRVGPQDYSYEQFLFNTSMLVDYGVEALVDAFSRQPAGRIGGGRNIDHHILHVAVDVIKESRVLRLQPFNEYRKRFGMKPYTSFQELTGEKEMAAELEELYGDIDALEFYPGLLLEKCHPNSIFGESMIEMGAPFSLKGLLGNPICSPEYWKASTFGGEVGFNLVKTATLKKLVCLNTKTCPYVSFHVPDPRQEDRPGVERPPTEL
Inconclusive results are not listed. Active and inactive are the calls of the source. The calls were made as follows: active = hit-call score of the fitted dose curve at least 0.9, where 1 is the maximum; inconclusive = response in the unintended direction; inactive = score below 0.9.
The reply should be one of these categories: 1 for active, 0 for inactive

Consider the worked cases shown below.
{"columns": ["compound", "groupLabel"],
 "data": [
  ["CC(C)[C@@H]1CC[C@@H](C)CC1=O", 0],
  ["O=C(O)CN(CCN(CC(=O)O)CC(=O)O)CCN(CC(=O)O)CC(=O)O", 0],
  ["CCCCCC(CO)CCC (stereo not given)", 1],
  ["CC(=O)OCc1ccc2c(c1)OCO2", 0]
]}

Would you kindly look at the next entry?
Q: I would be grateful if you could indicate the recorded call for `CCCCCCCCC` .
Ans: 0

---

experiment: ATG_DR4_LXR_CIS: Attagene CIS-FACTORIAL HepG2 Assay for human Liver X Receptor (LXR), DR4 submotif (AID 2282929); conditions: HepG2 Attagene DR4 cis-reporter, mRNA transcription; actives raise or lower the signal
The source made the active and inactive calls. How the source made its calls: active means hit-call score of the fitted dose curve at least 0.9, where 1 is the maximum; inactive means score below 0.9.
The reply should be one of these categories: active, inactive

Consider the worked cases shown below.
{"columns": ["compound", "groupLabel"],
 "data": [
  ["CCCCC(CC)COCCC#N (stereo not drawn)", "inactive"],
  ["O=c1oc(=O)c2cc3c(=O)oc(=O)c3cc12", "inactive"],
  ["CC(C)(N)CO", "inactive"],
  ["O=C(O)c1snc(Cl)c1Cl", "active"],
  ["CCO[Si](CCCS)(OCC)OCC", "inactive"]
]}

Q: I would be grateful if you could indicate the recorded call for `CC(C)=CCC/C(C)=C/COC=O` .
Ans: inactive

Q: I would be grateful if you could indicate the recorded call for `O=C1CCCCCCCCCCOCCCCO1` .
Ans: active

Q: I would be grateful if you could indicate the recorded call for `COc1ccc(Cl)cc1C` .
Ans: inactive

---

assay: ATG_Ets_CIS: Attagene CIS-FACTORIAL HepG2 Assay for human Erythroblast Transformation Specific (ETS) (AID 2282941); details: HepG2 ETS cis-reporter transcription, actives raise or lower the signal
Activity calls are given as the source filed them. Rule for the calls: active = hit-call score of the fitted dose curve at least 0.9, where 1 is the maximum; inactive = score below 0.9.
The reply should be one of these categories: t for active, f for inactive

Consider the worked cases shown below.
{"columns": ["molecule", "groupLabel"],
 "data": [
  ["COc1ccc(Nc2ccccc2)c(C)c1", "f"],
  ["CNC[C@H](O)c1cccc(O)c1", "f"],
  ["Cc1cccc(Nc2ccccc2C(=O)O)c1C", "f"]
]}

Q: I would be grateful if you could indicate the recorded call for OC1C(O)C(O)C(O)C(O)C1O (configuration not stated) .
Ans: f

Q: I would be grateful if you could indicate the recorded call for `C#C[C@]1(O)CC[C@H]2[C@@H]3CCC4=Cc5oncc5C[C@]4(C)[C@H]3CC[C@@]21C` .
Ans: t
